Entries and their measured fluorescence lifetime follow.
- METHOD DESCRIPTION: solvent given as SMILES
- CONDITIONS: in ClCCl
RECORDED ENDPOINT: fluorescence lifetime

INSERT INTO measurements (structure, recorded_endpoint, data_value) VALUES
  ('CCCCCCCCCCCCN1C(=O)c2c(c3ccc4cc(-c5ccc(C=O)cc5)c(OC)cc4c3c3c2ccc2cc(-c4ccc(C=O)cc4)c(OC)cc23)C1=O', 'fluorescence lifetime', '6.45 ns'),
  ('N#C/C(=C(/C#N)c1ccc(-c2ccncc2)cc1)c1ccc(-c2ccncc2)cc1', 'fluorescence lifetime', '0.1 ns'),
  ('COC(=O)c1cc(=O)n(C)c2cc(-c3cccc(N(C)C)c3)sc12', 'fluorescence lifetime', '2.64 ns'),
  ('CCn1c2ccsc2c2c3nsnc3c3c4sccc4n(CC)c3c21', 'fluorescence lifetime', '16.6 ns'),
  ('c1ccc(C(=C(c2ccccc2)c2ccc(-c3ccc(-c4nc5c(-c6ccc(-c7ccc(C(=C(c8ccccc8)c8ccccc8)c8ccccc8)cc7)cc6)sc(-c6ccc(-c7ccc(C(=C(c8ccccc8)c8ccccc8)c8ccccc8)cc7)cc6)c5nc4-c4ccc(-c5ccc(C(=C(c6ccccc6)c6ccccc6)c6ccccc6)cc5)cc4)cc3)cc2)c2ccccc2)cc1', 'fluorescence lifetime', '6.7 ns'),
  ('COc1ccc(C2=Nc3cccc4[n+]3[B-](F)(O2)OC(c2ccc(OC)cc2)=N4)cc1', 'fluorescence lifetime', '1.8 ns'),
  ('CN1C(=CC=Cc2nc3nc4ccccc4nc3s2)C(C)(C)c2ccccc21', 'fluorescence lifetime', '0.99 ns');
